- experiment: Metabolic stability in rat liver microsomes assessed as compound metabolized after 15 mins
- Type: ADME, Microsome
- condition-description: read-out: Drug metabolism

{"columns": ["compound", "uom", "metabolised at 0.25 h"],
 "data": [
  ["CS(=O)(=O)CCCn1c(Cn2c(=O)n(CC(F)(F)F)c3ccncc32)cc2cc(Cl)ccc21 [RILEMATOVIR]", "%", 60],
  ["N#CCCCn1c(Cn2c(=O)n(C3CC3)c3ccncc32)cc2cc(Cl)ccc21", "%", 80],
  ["O=c1n(Cc2cc3cnccc3n2CCCC(F)(F)F)c2cnccc2n1C1CC1", "%", 80],
  ["COc1ccc(-n2c(=O)n(Cc3cc4cc(Cl)ccc4n3CCCC#N)c3cnccc32)cc1", "%", 40],
  ["O=c1n(Cc2nc3nc(Cl)ccc3n2CCCC(F)(F)F)c2cnccc2n1C1CC1", "%", 80],
  ["COc1ccc(-n2c(=O)n(Cc3cc4cc(Cl)ccc4n3CCCC#N)c3cnccc32)cc1OC", "%", 74]
]}

====

- experiment: Oral bioavailability in dog at 5 mg/kg
- Type: ADME, organism-based, Canis lupus familiaris
- condition-description: in vivo
Listed next: entries and their corresponding bioavailability.
reported-endpoint: bioavailability (%)

{"columns": ["molecular-string", "reported-endpoint", "reported"],
 "data": [
  ["COc1ccc(-n2c(=O)n(Cc3cc4cc(Cl)ccc4n3CCCC#N)c3cnccc32)cc1OC", "bioavailability", 26],
  ["COc1ccc(-n2c(=O)n(Cc3cc4cc(Cl)ccc4n3CCCC#N)c3cnccc32)cc1", "bioavailability", 9]
]}

====

Overview of recorded clearance for various compounds
- experiment: Clearance in Sprague-Dawley rat plasma at 2.5 mg/kg, iv
- Format: ADME, organism-based

{"columns": ["molecular-string", "clearance"],
 "data": [
  ["COc1ccc(-n2c(=O)n(Cc3cc4cc(Cl)ccc4n3CCCC#N)c3cnccc32)cc1OC", "31.7 mL/min/kg"],
  ["COc1ccc(-n2c(=O)n(Cc3cc4cc(Cl)ccc4n3CCCC#N)c3cnccc32)cc1", "16.2 mL/min/kg"],
  ["CS(=O)(=O)CCCn1c(Cn2c(=O)n(CC(F)(F)F)c3ccncc32)cc2cc(Cl)ccc21", "65 mL/min/kg"]
]}

====

Recorded clearance values for a group of molecules are listed next.
- experiment: Clearance in dog plasma at 1 mg/kg, iv
- Format: ADME, organism-based, Canis lupus familiaris
reported-endpoint: clearance (mL/min/kg)

{"columns": ["molecule", "reported-endpoint", "uom", "reported"],
 "data": [
  ["CS(=O)(=O)CCCn1c(Cn2c(=O)n(CC(F)(F)F)c3ccncc32)cc2cc(Cl)ccc21 [RILEMATOVIR]", "clearance", "mL/min/kg", 8.5],
  ["COc1ccc(-n2c(=O)n(Cc3cc4cc(Cl)ccc4n3CCCC#N)c3cnccc32)cc1OC", "clearance", "mL/min/kg", 14.3],
  ["COc1ccc(-n2c(=O)n(Cc3cc4cc(Cl)ccc4n3CCCC#N)c3cnccc32)cc1", "clearance", "mL/min/kg", 24.8]
]}

====

- experiment: Protein binding in human plasma assessed as unbound fraction
- Format: ADME, cell-free
Decision: fraction unbound beneath 0.008 gives Criterion met; fraction unbound meeting or exceeding 0.008 gives Criterion not met.

{"columns": ["molecular-string", "qualitative-label"],
 "data": [
  ["CS(=O)(=O)CCCn1c(Cn2c(=O)n(CC(F)(F)F)c3ccncc32)cc2cc(Cl)ccc21", "Criterion not met"],
  ["O=c1n(Cc2cc3cnccc3n2CCCC(F)(F)F)c2cnccc2n1C1CC1", "Criterion not met"],
  ["N#CCCCn1c(Cn2c(=O)n(C3CC3)c3ccncc32)cc2cc(Cl)ccc21", "Criterion not met"],
  ["O=c1n(Cc2nc3nc(Cl)ccc3n2CCCC(F)(F)F)c2cnccc2n1C1CC1", "Criterion not met"],
  ["CC(C)CCn1c(Cn2c(=O)n(C3CC3)c3ccncc32)cc2ccccc21", "Criterion met"],
  ["COc1ccc(-n2c(=O)n(Cc3cc4cc(Cl)ccc4n3CCCC#N)c3cnccc32)cc1", "Criterion met"]
]}
